EXPERIMENT SUMMARY: Intranasal triptans with alkylsaccharide in rats, plasma levels by HPLC;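 further: rats in groups of eight given 20 µL into one nostril, dose expressed as triptan free base, Cmax and Tmax read from plasma concentration–time curves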
Type: in vivo
APPLIED CONDITIONS: Sumatriptan 6.2 mg/kg intranasal; alkylsaccharide 2%
REPORTED ENDPOINT: Ratio Cmax(alkylsacch)/Cmax(No alkylsacch)

CCCCCCCCCCCCCO[C@@H]1O[C@H](CO)[C@@H](O[C@H]2O[C@H](CO)[C@@H](O)[C@H](O)[C@H]2O)[C@H](O)[C@H]1O [tridecyl maltoside, tridecyl-β-D-maltoside]: ≧1.5
CCCCCCCCCCO[C@@H]1O[C@H](CO)[C@@H](O[C@H]2O[C@H](CO)[C@@H](O)[C@H](O)[C@H]2O)[C@H](O)[C@H]1O [decyl maltoside, decyl-β-D-maltoside]: ≧1.5
CCCCCCCCCCCCO[C@@H]1O[C@H](CO)[C@@H](O[C@H]2O[C@H](CO)[C@@H](O)[C@H](O)[C@H]2O)[C@H](O)[C@H]1O [dodecyl maltoside]: ≧1.5
CCCCCCCCO[C@@H]1O[C@H](CO)[C@@H](O[C@H]2O[C@H](CO)[C@@H](O)[C@H](O)[C@H]2O)[C@H](O)[C@H]1O [octyl maltoside, Octyl-β-D-maltoside]: ≦1.5

Note to self: Ratio Cmax(alkylsacch)/Cmax(No alkylsacch) recorded for CCCCCCCCCCCCCCO[C@@H]1O[C@H](CO)[C@@H](O[C@H]2O[C@H](CO)[C@@H](O)[C@H](O)[C@H]2O)[C@H](O)[C@H]1O [tetradecyl maltoside] was ≧1.5
